# Test system: HIV-1
# particulars: p24 antigen days 3 to 10; peptides 0.05 to 50 nmoles/ml, hCG 0.01 to 1,000 IU, native β-hCG 100 to 1,000 μg
Bridges are numbered along the chain shown (N, C = ends). Where no end group is shown, it is not given here.
measurement.name: inhibition of HIV-1 infection/replication in acutely infected cells

substance	meas.value
LQGVLPALPQVVC [β-hCG peptide 45-57]	most active
β-hCG peptide 74-95: β-hCG peptide of amino acids 74-95 (RGVNPVVSYAVALSCQCALCRR; UniProt P0DN86 94-115, looked up, fragment)	little or no effect
β-hCG peptide 6-16: β-hCG peptide of amino acids 6-16 (RPRCRPINATL; UniProt P0DN86 26-36, looked up, fragment)	little or no effect
Cys Leu Gln Gly Val Leu Pro Ala Leu Pro Gln Val Val Cys (CLQGVLPALPQVVC; disulfide 1-14 (inferred)) [Satellin A2 peptide]	most active
